assay: Pharmacokinetics of Bazedoxifene in CD-1 mice (plasma, LC-MS-MS); format: in vivo; details: CD-1, mouse, plasma, oral, 200 mg/kg, 200 mg/kg single dose; 1 hours post dose; free and bound combined; individual animals; read-out: Plasma Bazedoxifene Concentrations
assay endpoint: concentration at 1 h (nM)
Answers are plain numbers, in nM.

IN: So what does the record say about concentration at 1 h for Cc1c(-c2ccc(O)cc2)n(Cc2ccc(OCCN3CCCCCC3)cc2)c2ccc(O)cc12 ?
OUT: 2400

====

experiment: Pharmacokinetics of Bazedoxifene in CD-1 mice (plasma, LC-MS-MS); type: in vivo; details: CD-1, mouse, plasma, oral, 200 mg/kg, 200 mg/kg single dose; 0.5 hours post dose; free and bound combined; individual animals; read-out: Plasma Bazedoxifene Concentrations
assay endpoint: concentration at 0.5 h (nM)
Numbers only, in nM.

IN: Requested read-out: concentration at 0.5 h. Entry: Cc1c(-c2ccc(O)cc2)n(Cc2ccc(OCCN3CCCCCC3)cc2)c2ccc(O)cc12 [Bazedoxifene]
OUT: 1510
